Target: Androgen receptor (Homo sapiens)
Sequence (P10275 whole entry): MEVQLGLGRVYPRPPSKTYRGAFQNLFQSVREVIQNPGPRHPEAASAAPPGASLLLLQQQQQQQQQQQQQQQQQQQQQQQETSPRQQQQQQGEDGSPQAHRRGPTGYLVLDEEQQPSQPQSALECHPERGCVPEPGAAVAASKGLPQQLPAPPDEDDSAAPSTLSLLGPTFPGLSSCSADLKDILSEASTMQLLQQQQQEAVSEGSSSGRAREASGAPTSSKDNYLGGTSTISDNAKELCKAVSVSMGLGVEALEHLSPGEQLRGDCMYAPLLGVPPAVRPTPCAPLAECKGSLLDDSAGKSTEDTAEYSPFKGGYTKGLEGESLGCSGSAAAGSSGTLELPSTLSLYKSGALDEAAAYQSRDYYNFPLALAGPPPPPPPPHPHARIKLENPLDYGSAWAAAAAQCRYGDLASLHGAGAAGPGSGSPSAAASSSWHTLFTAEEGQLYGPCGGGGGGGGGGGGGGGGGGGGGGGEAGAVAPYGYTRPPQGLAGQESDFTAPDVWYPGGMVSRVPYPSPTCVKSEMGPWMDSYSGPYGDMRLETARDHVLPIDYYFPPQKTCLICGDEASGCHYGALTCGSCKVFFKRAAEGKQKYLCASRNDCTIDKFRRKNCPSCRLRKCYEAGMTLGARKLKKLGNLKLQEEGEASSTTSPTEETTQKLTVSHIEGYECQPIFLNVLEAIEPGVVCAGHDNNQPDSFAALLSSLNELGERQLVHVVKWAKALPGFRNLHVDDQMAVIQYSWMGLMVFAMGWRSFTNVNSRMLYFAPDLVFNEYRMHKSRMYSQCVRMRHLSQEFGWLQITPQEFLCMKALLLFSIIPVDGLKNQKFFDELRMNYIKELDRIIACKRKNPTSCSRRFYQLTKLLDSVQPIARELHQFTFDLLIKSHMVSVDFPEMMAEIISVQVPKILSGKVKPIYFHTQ
Experiment: Antagonist activity at human androgen receptor ligand binding domain expressed in human Huh7 cells after 16 hrs by luciferase reporter gene assay
ENDPOINT LABEL: IC50

Could you please provide reported IC50 for Cc1cn(-c2ccc(CNS(=O)(=O)c3cc(F)ccc3F)cc2)c(C)n1 ? Thanks! > 10 µM
